- tested target: Urease (Canavalia ensiformis)
- Sequence (P07374 whole entry): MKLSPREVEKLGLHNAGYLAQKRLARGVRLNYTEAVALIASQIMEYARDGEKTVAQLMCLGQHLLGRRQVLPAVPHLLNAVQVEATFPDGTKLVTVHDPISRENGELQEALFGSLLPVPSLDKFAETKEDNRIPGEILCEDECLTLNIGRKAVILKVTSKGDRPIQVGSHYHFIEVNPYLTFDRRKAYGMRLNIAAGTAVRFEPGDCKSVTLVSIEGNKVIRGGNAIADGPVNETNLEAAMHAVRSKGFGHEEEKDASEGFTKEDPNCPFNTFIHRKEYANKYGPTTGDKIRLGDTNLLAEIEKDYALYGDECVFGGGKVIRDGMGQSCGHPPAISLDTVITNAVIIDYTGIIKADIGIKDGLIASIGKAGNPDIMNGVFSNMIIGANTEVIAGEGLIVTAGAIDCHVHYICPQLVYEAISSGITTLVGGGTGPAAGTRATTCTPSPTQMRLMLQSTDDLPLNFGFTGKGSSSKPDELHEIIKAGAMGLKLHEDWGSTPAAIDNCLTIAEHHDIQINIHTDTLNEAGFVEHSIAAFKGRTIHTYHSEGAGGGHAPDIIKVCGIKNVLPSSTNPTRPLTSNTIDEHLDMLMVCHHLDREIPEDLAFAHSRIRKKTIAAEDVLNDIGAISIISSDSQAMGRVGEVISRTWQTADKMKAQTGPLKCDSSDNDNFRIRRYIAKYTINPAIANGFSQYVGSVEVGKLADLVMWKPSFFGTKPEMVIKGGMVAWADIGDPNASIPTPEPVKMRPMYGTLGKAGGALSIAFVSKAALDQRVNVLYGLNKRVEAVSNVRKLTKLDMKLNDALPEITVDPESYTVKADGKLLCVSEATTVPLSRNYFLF
- assay: Inhibition of jack bean urease using urea as substrate assessed as reduction in ammonia production after 30 mins by indophenol method
Category | rule: reported IC50 within range, see band 1: < 4 µM; band 2: ≥ 4 µM and < 9 µM; band 3: ≥ 9 µM

Observe how each entry below is paired with its result.
>>> print(df.to_string())
                              sample_smiles                  tested_target     cat
0  O=C(NC(=S)Nc1cc(Cl)cc(Cl)c1)c1cccc(Cl)c1  Urease (Canavalia ensiformis)  band 2
1       Cc1ccc(NC(=S)NC(=O)c2cccc(Cl)c2)cc1  Urease (Canavalia ensiformis)  band 3
2       O=C(NC(=S)Nc1ccc(F)cc1)c1cccc(Cl)c1  Urease (Canavalia ensiformis)  band 1

Next, consider the following molecule.
Exam item: Quick check: band for O=C(NC(=S)Nc1ccccc1)c1cccc(Cl)c1
Marked response: band 1

----------
- Tested on: NCI-H157
- assay: Growth inhibition of human NCI-H157 cells at 100 uM after 48 hrs by SRB assay
- Type: functional
- condition label: NCI-H157, 48 h, read-out: GI
reported property: inhibition of growth at 100 µM (%)
# number only, unit % dropped from output

compound	inhibition of growth at 100 µM [%]
O=C(NC(=S)Nc1ccccc1Cl)c1cccc(Cl)c1	45.4

Exam item: Look at this compound and give its reported inhibition of growth at 100 µM. CC[C@]1(O)C[C@H]2CN(CCc3c([nH]c4ccccc34)[C@@](C(=O)OC)(c3cc4c(cc3OC)N(C=O)[C@H]3[C@@](O)(C(=O)OC)[C@H](OC(C)=O)[C@]5(CC)C=CCN6CC[C@]43[C@@H]65)C2)C1 [VINCRISTINE]
Marked response: 74.6

Exam item: Lookup O=C(NC(=S)Nc1ccccc1[N+](=O)[O-])c1cccc(Cl)c1
Marked response: 36.4

Exam item: Lookup Cc1cccc(NC(=S)NC(=O)c2cccc(Cl)c2)c1C
Marked response: 41.7

Exam item: Lookup COc1cccc(NC(=S)NC(=O)c2cccc(Cl)c2)c1
Marked response: 42.2

----------
Measured inhibition values are reported for all entries that follow.
- tested target: Urease (Canavalia ensiformis) (UniProt P07374)
- Sequence (P07374 whole entry, looked up): as the sequence (P07374 whole entry) above
- assay: Inhibition of jack bean urease using urea as substrate assessed as reduction in ammonia production at 1 mM after 30 mins by indophenol method
// return the numeric value with its unit appended

                              sample_smiles  observed_result
0        O=C(NC(=S)Nc1ccccc1Cl)c1cccc(Cl)c1            25.7%
1      O=C(NC(=S)Nc1cccc(Cl)c1)c1cccc(Cl)c1            29.1%
2    CCCCc1ccc(NC(=S)NC(=O)c2cccc(Cl)c2)cc1            36.9%
3  O=C(NC(=S)Nc1ccc([N+](=O)[O-])cc1)c1cccc(Cl)c1            28.1%
4       O=C(NC(=S)NCc1ccccc1Cl)c1cccc(Cl)c1            27.4%
5     O=C(NC(=S)Nc1nc2ccccc2s1)c1cccc(Cl)c1            27.9%
6  O=C(NC(=S)Nc1ccc(Cl)c(Cl)c1)c1cccc(Cl)c1            36.7%
7    O=C(NC(=S)Nc1cccc2ccccc12)c1cccc(Cl)c1            37.1%

Exam item: Checklist item: inhibition tested on Urease (Canavalia ensiformis) (UniProt P07374), entry O=C(NC(=S)Nc1ccc([N+](=O)[O-])cc1[N+](=O)[O-])c1cccc(Cl)c1 , value?
Marked response: 23.1%

Exam item: Lookup COc1cccc(NC(=S)NC(=O)c2cccc(Cl)c2)c1
Marked response: 21.7%

Exam item: Lookup O=C(NC(=S)N(C1CCCCC1)C1CCCCC1)c1cccc(Cl)c1
Marked response: 29.9%

Exam item: Lookup O=C(NC(=S)Nc1c(Cl)c(Cl)cc(Cl)c1Cl)c1cccc(Cl)c1
Marked response: 32.7%

----------
- Tested on: NCI-H157
- assay: Growth inhibition of human NCI-H157 cells at 100 uM after 48 hrs by SRB assay
- Format: functional
- condition label: NCI-H157, 48 h, read-out: GI
Use 40% as the dividing line for inhibition of growth at 100 µM, with the line itself on the satisfied side and lower values as not satisfied.

>>> df
                            sample_smiles        cat
0  O=C(NC(=S)Nc1cc(Cl)ccc1Cl)c1cccc(Cl)c1  satisfied

Next, consider the following molecule.
Exam item: Does the molecule O=C(NC(=S)NC1CCCCC1)c1cccc(Cl)c1 have recorded inhibition of growth at 100 µM that is 40% or more?
Marked response: satisfied

----------
Measured IC50 values are reported for all entries that follow.
- tested target: Urease (Canavalia ensiformis)
- assay: Inhibition of jack bean urease using urea as substrate assessed as reduction in ammonia production after 30 mins by indophenol method
# number only, unit µM dropped from output

In the examples that follow, each entry is paired with its recorded IC50.
>>> df
                              sample_smiles  observed_result
0  O=C(NC(=S)Nc1ccccc1C(F)(F)F)c1cccc(Cl)c1             5.58
1    O=C(NC(=S)Nc1cccc(Cl)c1Cl)c1cccc(Cl)c1             1.92
2  O=C(NC(=S)Nc1ccccc1[N+](=O)[O-])c1cccc(Cl)c1             8.59
3         O=C(NC(=S)NCc1ccccc1)c1cccc(Cl)c1             16.4
4          O=C(NC(=S)NC1CCCCC1)c1cccc(Cl)c1             14.3

Exam item: Look at this molecule and give its reported IC50. O=C(NC(=S)Nc1ccc(Cl)cc1Cl)c1cccc(Cl)c1
Marked response: 1.34

Exam item: Lookup O=C(NC(=S)Nc1cccc(C(F)(F)F)c1)c1cccc(Cl)c1
Marked response: 2.86

Exam item: Lookup O=C(NC(=S)Nc1ncccn1)c1cccc(Cl)c1
Marked response: 2.11

Exam item: Lookup CN(C(=S)NC(=O)c1cccc(Cl)c1)c1ccccc1
Marked response: 17.5

Exam item: Lookup COc1ccccc1NC(=S)NC(=O)c1cccc(Cl)c1
Marked response: 3.79

Exam item: Lookup CCc1cccc(CC)c1NC(=S)NC(=O)c1cccc(Cl)c1
Marked response: 12.6

Exam item: Lookup Cc1cc(C)c(NC(=S)NC(=O)c2cccc(Cl)c2)c(C)c1
Marked response: 1.23

Exam item: Lookup O=C(NC(=S)Nc1ccc(C(F)(F)F)cc1)c1cccc(Cl)c1
Marked response: 7.04

----------
- Tested on: NCI-H157
- assay: Growth inhibition of human NCI-H157 cells at 100 uM after 48 hrs by SRB assay
- Type: functional
- condition label: NCI-H157, 48 h, read-out: GI
reported property: inhibition of growth at 100 µM (%)
# number only, unit % dropped from output

In the examples that follow, each entry is paired with its recorded inhibition of growth at 100 µM.
>>> df
                              sample_smiles  observed_result
0      O=C(NC(=S)Nc1cccc(Cl)c1)c1cccc(Cl)c1             52.9
1       Cc1ccc(NC(=S)NC(=O)c2cccc(Cl)c2)cc1             39.4
2  O=C(NC(=S)Nc1c(Cl)c(Cl)cc(Cl)c1Cl)c1cccc(Cl)c1             45.5
3  Cc1cc(C)c(NC(=S)NC(=O)c2cccc(Cl)c2)c(C)c1             43.7
4    CCCCc1ccc(NC(=S)NC(=O)c2cccc(Cl)c2)cc1             47.7

Exam item: Look at this molecule and give its reported inhibition of growth at 100 µM. O=C(NC(=S)Nc1ccc(Br)cc1Br)c1cccc(Cl)c1
Marked response: 38.2

Exam item: Lookup O=C(NC(=S)Nc1ccc(Cl)cc1Cl)c1cccc(Cl)c1
Marked response: 38.9

Exam item: Lookup O=C(NC(=S)Nc1cccc(Cl)c1Cl)c1cccc(Cl)c1
Marked response: 50.7

Exam item: Lookup CCc1cccc(CC)c1NC(=S)NC(=O)c1cccc(Cl)c1
Marked response: 41.2

Exam item: Lookup O=C(NC(=S)Nc1ccc([N+](=O)[O-])cc1)c1cccc(Cl)c1
Marked response: 32.7

Exam item: Lookup O=C(NC(=S)Nc1cc(Cl)c(Cl)cc1Cl)c1cccc(Cl)c1
Marked response: 43.3

----------
- Tested on: NCI-H157
- assay: Growth inhibition of human NCI-H157 cells at 100 uM after 48 hrs by SRB assay
- Type: functional
- condition label: NCI-H157, 48 h, read-out: GI
reported property: inhibition of growth at 100 µM (%)
# number only, unit % dropped from output

>>> df
                              sample_smiles  tested_target               reported_property  observed_result
0        COc1ccccc1NC(=S)NC(=O)c1cccc(Cl)c1       NCI-H157  inhibition of growth at 100 µM             42.8
1  O=C(NC(=S)Nc1ccc(Cl)c(Cl)c1)c1cccc(Cl)c1       NCI-H157  inhibition of growth at 100 µM             39.4
2     O=C(NC(=S)Nc1nc2ccccc2s1)c1cccc(Cl)c1       NCI-H157  inhibition of growth at 100 µM             48.8

Exam item: Look at this molecule and give its reported inhibition of growth at 100 µM. O=C(NC(=S)Nc1ccccc1C(F)(F)F)c1cccc(Cl)c1
Marked response: 36.9
